condition: 328.2 K; 101.33 kPa; Liquid; Cone and plate viscometry
Numbers after ± are expanded uncertainties.
observedProperty: viscosity
Value and unit, in that order.

Some solved cases for reference:
compound	viscosity
CC(=O)[O-].OCC[NH2+]CCO [2,2'-azanediylbis(ethanol) acetate]	78.35 ± 16 mPa·s
CC(=O)[O-].C[NH+](CCO)CCO [N-methyldiethanolammonium acetate]	40.45 ± 8.1 mPa·s
CC(=O)[O-].[NH3+]CCO [2-hydroxyethylammonium acetate]	56.56 ± 11 mPa·s
CC(O)C(=O)O.OCCNCCO [diethanolamine lactate]	51.78 ± 10 mPa·s

We next turn to a different compound, shown below.
Query CC(O)C(=O)[O-].[NH3+]CCO (stereo not given) [2-hydroxyethylammonium lactate] yields viscosity of 48.12 ± 9.7 mPa·s
